assay: ATG_M_06_TRANS: Attagene TRANS-FACTORIAL HepG2 Assay for M06 Transcription Factor (Internal Marker) (AID 2282983); conditions: HepG2 Attagene TRANS M06 internal marker reporter;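 note: reporter transcript level by RT-PCR then capillary electrophoresis fluorescence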
Inconclusive results are not listed. Calls of active or inactive are those of the source. Rule for the calls: active = hit-call score of the fitted dose curve at least 0.9, where 1 is the maximum; inconclusive = response in the unintended direction; inactive = score below 0.9.

>  <MOLECULAR STRING>
Cc1ccc([N+](=O)[O-])c(C)c1

>  <outcome>
inactive

$$$$
>  <MOLECULAR STRING>
CC1CCCCC1

>  <outcome>
inactive

$$$$
>  <MOLECULAR STRING>
CCCCCCCCCCCC(=O)Cl

>  <outcome>
inactive

$$$$
>  <MOLECULAR STRING>
CC(C)Nc1ccc(NC(C)C)c2c1C(=O)c1ccccc1C2=O

>  <outcome>
inactive

$$$$
>  <MOLECULAR STRING>
C=C(C)C(=O)OCC(F)(F)C(F)(F)C(F)(F)C(F)F

>  <outcome>
inactive

$$$$
>  <MOLECULAR STRING>
C=CC(=O)OCC(F)(F)C(F)(F)C(F)(F)COC(=O)C=C

>  <outcome>
inactive

$$$$
>  <MOLECULAR STRING>
Cc1cc(=O)[nH]c(C(C)C)n1

>  <outcome>
inactive

$$$$

Just for reference, PubChem BioAssay (EPA / NIEHS) is where these values come from.
